# Tested on: A. baumannii JMI7
# experiment.description: In vitro antimicrobial activity, MIC by broth microdilution (CLSI)
# Type: cell-based
# stated.conditions: Acinetobacter baumannii, JMI7; PER-1, OXA-23, 51, ESBL and OXA-type carbapenemase producing strain; 5×10^5 cfu/mL; cation-adjusted Iso-Sensitest broth containing human Apo-transferrin; read-out: Minimum Inhibitory Concentration (MIC) A. baumannii JMI:7
Recorded MIC, one value per entry.
endpoint.label: MIC (mg/L)

• C[C@@H]1S[C@@H]2[C@H](NC(=O)/C(=N\OC(C)(C)C(=O)[O-])c3csc(N)n3)C(=O)N2C(C(=O)O)=C1C[N+]12CCC(CNC(=O)c3cc(O)c(O)c(Cl)c3)(CC1)C2 [Compound I-142] = 0.5
• C[C@@H]1S[C@@H]2[C@H](NC(=O)/C(=N\OC(C)(C)C(=O)[O-])c3csc(N)n3)C(=O)N2C(C(=O)O)=C1C[N+]12CCC(CNC(=O)/C(=N\O)c3ccc(O)c(O)c3)(CC1)CC2 [Compound I-92] = 4
• C[C@@H]1S[C@@H]2[C@H](NC(=O)/C(=N\OC(C)(C)C(=O)[O-])c3csc(N)n3)C(=O)N2C(C(=O)O)=C1C[N+]12CCC(CNC(=O)c3ccc(O)c(O)c3Cl)(CC1)CC2 [Compound I-40] = 1
• C[C@@H]1S[C@@H]2[C@H](NC(=O)/C(=N\OC(C)(C)C(=O)[O-])c3csc(N)n3)C(=O)N2C(C(=O)[O-])=C1C[N+]12CCC(Cn3[nH]c(=O)c4cc(O)c(O)cc4c3=O)(CC1)C2.[Na+] [Compound I-180] = 0.5
• C[C@@H]1S[C@@H]2[C@H](NC(=O)/C(=N\OC(C)(C)C(=O)[O-])c3csc(N)n3)C(=O)N2C(C(=O)[O-])=C1C[N+]12CCC(CC1)N(C(=O)C(=O)c1ccc(O)c(O)c1)CC2.[Na+] [Compound I-108] = 0.5
• C[C@@H]1S[C@@H]2[C@H](NC(=O)/C(=N\OC(C)(C)C(=O)[O-])c3csc(N)n3)C(=O)N2C(C(=O)[O-])=C1C[N+]12CCC(CNC(=O)c3c[nH]c4cc(O)c(O)c(Cl)c4c3=O)(CC1)CC2.[Na+] [Compound I-169] = 0.25
• C[C@@H]1S[C@@H]2[C@H](NC(=O)/C(=N\OC(C)(C)C(=O)[O-])c3csc(N)n3)C(=O)N2C(C(=O)[O-])=C1C[N+]12CCC(CNC(=O)c3cc(=O)c(O)c[nH]3)(CC1)CC2.[Na+] [Compound I-140] = 4
• C[C@@H]1S[C@@H]2[C@H](NC(=O)/C(=N\OC(C)(C)C(=O)[O-])c3csc(N)n3)C(=O)N2C(C(=O)O)=C1C[N+]12CCC(CNC(=O)/C(=N\O)c3ccc(O)c(O)c3Cl)(CC1)CC2 [Compound I-94] = 1
• C[C@@H]1S[C@@H]2[C@H](NC(=O)/C(=N\OC(C)(C)C(=O)[O-])c3csc(N)n3)C(=O)N2C(C(=O)O)=C1C[N+]1(CCNC(=O)c2ccc(O)c(O)c2Cl)CCCC1 [Compound I-52] = 1
